# System: HOP-92 NSCLC
# EXPERIMENTAL_PROTOCOL: NCI tumour cell line growth inhibition, 48 h
MEASURED_PROPERTY: TGI

SMILES_REPR: CN(C)c1nc2oc(-c3ccccc3)c(-c3ccccc3)c2c2nncn12
RESULT: > 100 µM
//
SMILES_REPR: CC(C)C[C@H](NC(=O)[C@H](Cc1ccccc1)NC(=O)CCc1ccccc1)B(O)O
RESULT: < 0.01 µM
//
SMILES_REPR: Cn1c(-c2cccs2)cc(-c2ccccc2)c1-c1cccs1
RESULT: > 100 µM

Now look at this one.
// TGI lookup, key: "COc1ccccc1/C=C(\C#N)C(=O)c1ccccc1"
> 100 µM
